These data points were gathered from patent US11485742B2.

# system_name: human cloned CHRM5 receptor (Homo sapiens, UniProt P08912)
# Construct: expressed in transfected cells; host or cells: CHO (M5_CHO)
# Sequence (P08912 1-532): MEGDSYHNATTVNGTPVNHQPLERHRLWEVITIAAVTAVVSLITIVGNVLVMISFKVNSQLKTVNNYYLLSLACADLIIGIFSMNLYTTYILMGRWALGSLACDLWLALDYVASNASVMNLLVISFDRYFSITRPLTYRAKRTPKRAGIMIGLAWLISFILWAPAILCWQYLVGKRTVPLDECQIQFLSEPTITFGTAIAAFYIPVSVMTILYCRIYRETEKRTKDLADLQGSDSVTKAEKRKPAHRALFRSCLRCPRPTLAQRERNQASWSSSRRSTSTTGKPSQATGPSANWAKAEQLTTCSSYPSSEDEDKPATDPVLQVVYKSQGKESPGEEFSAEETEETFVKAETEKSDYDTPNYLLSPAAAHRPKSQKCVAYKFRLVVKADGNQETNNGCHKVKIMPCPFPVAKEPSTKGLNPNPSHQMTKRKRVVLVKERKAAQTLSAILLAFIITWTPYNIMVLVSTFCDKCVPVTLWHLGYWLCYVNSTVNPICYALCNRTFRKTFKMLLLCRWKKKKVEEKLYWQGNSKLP
# measurement_notes: CHRM5 Ca++ Flux Assay (M5_CHO cells, agonist mode)
# Assay type: cell-based
# condition_notes: Percent Activity (PA) measured to EC100 of Carbachol
measurement_label: M5 FDSS PA % (%)
Output spec: scalar in %, unitless text.

**Q:** Identify M5 FDSS PA % associated with the compound OC[C@H]1C[C@H](Oc2ccc(F)cc2C2CCN([C@@H]3COC4(C3)CN(c3nnco3)C4)CC2)C1 (single isomer, unassigned) [Example 2HH]
**A:** 0

**Q:** Identify M5 FDSS PA % associated with the compound Fc1ccc(O[C@H]2CCCOC2)c(C2CCN([C@@H]3COC4(C3)CN(c3nnco3)C4)CC2)c1 (single isomer, unassigned) [Example 2Q]
**A:** 0

**Q:** Identify M5 FDSS PA % associated with the compound c1ccc([C@@H]2CCOC2)c(C2CCN([C@@H]3COC4(C3)CN(c3nnco3)C4)CC2)c1 (single isomer, unassigned) [Example 3B]
**A:** 0

* * *

# system_name: Cloned human M1 receptor (CHRM1) (Homo sapiens)
# Sequence (P11229 whole entry): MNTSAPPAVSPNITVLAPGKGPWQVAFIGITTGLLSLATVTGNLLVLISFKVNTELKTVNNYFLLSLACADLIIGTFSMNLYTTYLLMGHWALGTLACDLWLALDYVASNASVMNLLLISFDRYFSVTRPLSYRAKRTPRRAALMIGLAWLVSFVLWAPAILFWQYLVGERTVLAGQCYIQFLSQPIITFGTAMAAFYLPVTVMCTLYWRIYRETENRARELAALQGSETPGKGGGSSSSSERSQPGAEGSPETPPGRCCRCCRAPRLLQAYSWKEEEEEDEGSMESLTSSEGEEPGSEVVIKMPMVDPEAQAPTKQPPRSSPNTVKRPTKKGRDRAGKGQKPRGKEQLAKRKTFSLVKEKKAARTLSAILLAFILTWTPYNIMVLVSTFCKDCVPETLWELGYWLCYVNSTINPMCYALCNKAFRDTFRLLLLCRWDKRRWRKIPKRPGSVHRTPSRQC
# measurement_notes: CHRM1 Ca++ Flux Assay (HEK293 M1 cells, agonist mode)
# condition_notes: geometric mean if tested more than once, read-out: M1 FDSS EC50
measurement_label: pEC50
Remember the convention: pEC50 equals -log10 of concentration in molar.

**Q:** Identify pEC50 associated with the molecule Cc1nnc(COc2ccc(F)cc2C2CCN([C@@H]3COC4(C3)CN(c3nnco3)C4)CC2)s1 [Example 2E]
**A:** 6.94

**Q:** Identify pEC50 associated with the molecule c1ccc(C2CCN([C@@H]3COC4(C3)CN(c3nnco3)C4)CC2)c(O[C@@H]2CCOC2)c1 [Example 1O]
**A:** 5.87

**Q:** Identify pEC50 associated with the molecule CC(C)(O)COc1ccc(F)cc1C1CCN([C@@H]2COC3(C2)CN(c2nnco2)C3)CC1 [Example 1U]
**A:** 6.02

**Q:** Identify pEC50 associated with the molecule Fc1ccc(OCC2(F)COC2)c(C2CCN([C@@H]3COC4(C3)CN(c3nnco3)C4)CC2)c1 [Example 2J]
**A:** 6.39
